Molecular target: human ABCB1 (Homo sapiens, UniProt P08183)
Sequence (P08183 whole entry): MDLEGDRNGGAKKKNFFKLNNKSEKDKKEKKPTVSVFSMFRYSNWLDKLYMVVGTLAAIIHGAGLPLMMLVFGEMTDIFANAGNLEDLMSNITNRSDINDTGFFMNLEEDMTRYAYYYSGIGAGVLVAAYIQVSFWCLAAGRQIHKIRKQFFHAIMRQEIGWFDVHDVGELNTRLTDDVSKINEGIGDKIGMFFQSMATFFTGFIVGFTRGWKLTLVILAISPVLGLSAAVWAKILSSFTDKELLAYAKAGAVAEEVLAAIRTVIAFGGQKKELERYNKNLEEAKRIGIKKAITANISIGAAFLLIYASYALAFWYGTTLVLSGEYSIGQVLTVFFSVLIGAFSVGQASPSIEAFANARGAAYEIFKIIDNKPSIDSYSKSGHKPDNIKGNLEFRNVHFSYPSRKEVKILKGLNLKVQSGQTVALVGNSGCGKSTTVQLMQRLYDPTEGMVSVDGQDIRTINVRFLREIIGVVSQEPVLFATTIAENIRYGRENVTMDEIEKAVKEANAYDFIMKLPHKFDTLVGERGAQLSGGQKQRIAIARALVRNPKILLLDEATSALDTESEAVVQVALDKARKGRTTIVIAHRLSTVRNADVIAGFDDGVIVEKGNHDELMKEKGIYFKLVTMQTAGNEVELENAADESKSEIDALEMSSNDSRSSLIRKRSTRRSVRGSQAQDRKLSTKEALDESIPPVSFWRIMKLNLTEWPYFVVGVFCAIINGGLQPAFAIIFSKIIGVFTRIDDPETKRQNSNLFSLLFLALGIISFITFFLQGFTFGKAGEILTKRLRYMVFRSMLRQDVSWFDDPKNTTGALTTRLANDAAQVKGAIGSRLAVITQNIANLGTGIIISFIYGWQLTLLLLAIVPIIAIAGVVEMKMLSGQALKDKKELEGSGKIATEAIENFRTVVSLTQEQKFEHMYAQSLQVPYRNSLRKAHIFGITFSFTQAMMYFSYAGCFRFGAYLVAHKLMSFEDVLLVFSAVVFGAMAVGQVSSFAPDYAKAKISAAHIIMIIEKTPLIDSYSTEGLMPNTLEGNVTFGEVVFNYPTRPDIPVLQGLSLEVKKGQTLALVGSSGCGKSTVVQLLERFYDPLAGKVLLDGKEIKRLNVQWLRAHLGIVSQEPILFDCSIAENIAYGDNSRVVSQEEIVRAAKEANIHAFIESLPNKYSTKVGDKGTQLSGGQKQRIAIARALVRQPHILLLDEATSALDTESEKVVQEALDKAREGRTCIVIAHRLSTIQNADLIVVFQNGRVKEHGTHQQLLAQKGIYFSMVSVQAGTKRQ
Test: cell-based
ASSAY_METRIC: IC50 (nM)
Give bare numbers, in nM.

Task: Using the record for COc1cc2c(cc1OC)CN(CCc1ccc(NC(=O)c3cc(OC)c(OC)cc3NC(=O)c3cnc4ccccc4c3)cc1)CC2 , report its IC50.
Result: 29.5

====

Molecular target: human ABCB1 (Homo sapiens, UniProt P08183)
ASSAY_METRIC: IC50 (µM)
Give bare numbers, in µM.

Task: Using the record for COc1cc2c(cc1OC)CN(CCc1ccc(NC(=O)c3cc(OC)c(OC)cc3NC(=O)c3cnc4ccccc4c3)cc1)CC2 [tariquidar] , report its IC50.
Result: 0.0171

Cited source for all entries: paper PMC4979595
